assay: reduction of polyQ htt aggregates in cells – imaging, exon1htt(103Q)mCFP cells, high-content imaging, primary screen (AID 483); conditions: exon1htt(103Q)mCFP cell line, aggregate imaging, at 2 µM; hits give high values;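 further: compound exposure lasted 3 days before fixation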
Calls of active or inactive are those of the source.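 How the source made its calls: active means visual image review flags a hit and inhibition of aggregation exceeds 20%; inconclusive means visual hit but inhibition at or below 20%; inactive means no hit on visual image review.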
PROPERTY LABEL: inhibition of aggregation

These recorded examples may help you get a feel for the data.
Cc1ccc(C(=O)C2CN3CCC2CC3)cc1 (stereo unspecified); -13.1% (inactive)
O=C(CCCN1CCC2(CC1)C(=O)NCN2c1ccccc1)c1ccc(F)cc1; -20.4% (inactive)
CCOP(=S)(OCC)c1ccc(N(C)C)cc1; 18.4% (inactive)
CN(C)[C@@H]1C(=O)C(C(N)=O)=C(O)[C@@]2(O)C(=O)C3=C(O)c4c(O)cccc4[C@@](C)(O)[C@H]3C[C@@H]12; 72.1% (active)
CCN1CCN(c2ncnc3ccc(Br)cc23)CC1; 48% (active)
NCC1(CC(=O)O)CCCCC1; -6.5% (inactive)

Please give inhibition of aggregation for each item listed below.
1. CC(=O)N1CC(=O)Nc2ccc(Cl)cc2C1c1ccc(F)cc1 (stereo unspecified)
2. CC(C)(C)OC(=O)c1c(N)n(Cc2ccco2)c2nc3ccccc3nc12
3. Cc1nn(-c2ccccc2)c2c1CC1(C(=O)N(C)C(=O)N(C)C1=O)C1CCCCN21 (stereo unspecified)

1. -6.1% (inactive)
2. -3.4% (inactive)
3. 26.9% (inactive)

Look up inhibition of aggregation for the entries below, preserving their order.
1. Cc1ccc(O)c(CN2CCN(c3ccccc3)CC2)c1
2. CC(=O)C1C(=O)NC23CCCCC2C1c1ccccc1O3 (stereo unspecified)

-4.7% (inactive)
2.2% (inactive)
